experiment_description: qHTS Assay for Lipid Storage Modulators in Drosophila S3 Cells;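 note: cells counted by Cell Tracker Red CMTPX staining in the red channel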
applied_conditions: BODIPY lipid droplet fluorescence, 18-24 h, cells fed with added oleic acid; measured here: cell count max response
Screen size: about 320,000 compounds; about 2,100 (0.66%) were called active. Inconclusive results (about 53%) are left out. For the sample, actives were picked, then their nearest neighbours and some compounds at random.
Catalogue of compounds with associated cell number change
Enter the number, and then the unit.

Below are worked cases with known answers.
[[record]]
compound = "Cc1cccc(NC(=O)NNC(=O)c2ccc(C)c([N+](=O)[O-])c2)c1"
measurement = "11.9%"

[[record]]
compound = "CC1CC(C)CN(S(=O)(=O)c2ccc(NC(=O)CN3C(=O)NC(C)(c4ccccc4)C3=O)cc2)C1 (stereo not given)"
measurement = "3.59%"

[[record]]
compound = "CCS(=O)(=O)CCSc1nc(C)cc(C)c1C#N"
measurement = "5.68%"

[[record]]
compound = "O=C(Nc1ccc(Br)cc1)C1CCCN(C2=NS(=O)(=O)c3ccccc32)C1 (stereo not given)"
measurement = "0.774%"

[[record]]
compound = "O=C(O)c1cccc(-c2ccc(/C=C3/SC(=Nc4ccccc4)N(Cc4cccnc4)C3=O)o2)c1"
measurement = "-5.87%"

[[record]]
compound = "CCC(=O)NC(=S)Nc1ccc(NC(=O)c2ccc([N+](=O)[O-])cc2Cl)cc1"
measurement = "-6.05%"

[[record]]
compound = "COc1ccccc1CNC(=O)C(=O)NCCC1CCCCN1S(=O)(=O)c1ccc(C)cc1 (stereo not given)"
measurement = "18.8%"

[[record]]
compound = "O=C(Nc1cccc(NC(=O)c2ccc([N+](=O)[O-])o2)c1)c1ccco1"
measurement = "19.2%"

[[record]]
compound = "Cc1nn(C)c(Cl)c1C(=O)NCC(=O)NCc1ccccc1"
measurement = "-13%"

[[record]]
compound = "CC(=O)NC(=S)Nc1ccc(NC(=S)NC(=O)/C=C/c2ccco2)cc1"
measurement = "15.8%"


Recall and state the measured cell number change for Cc1ccc(S(=O)(=O)CCSc2nc(C)cc(C(F)(F)F)c2C#N)cc1 . -21.5%

Dear colleague, please send me the reported cell number change for CCN1C(=O)/C(=C\c2ccc(-c3cccc(C(=O)OC)c3)o2)SC1=Nc1ccc(C(=O)O)cc1 when you can. -21.2%

Please look at this compound and report its cell number change: COc1cccc(NC(=O)C(=O)NCCC2CCCCN2S(=O)(=O)c2ccccc2)c1 (stereo not given) -3.85%

// fetch cell number change given entry O=C(O)c1ccccc1-n1cnnn1 -10.9%

For the compound CC(C)(C)OC(=O)CN1C(=O)S/C(=C\c2ccc(-c3cccc(C(=O)O)c3)o2)C1=O , report cell number change. 2.36%

Input CC(=O)Nc1ccc(NC(=S)NC(=O)/C=C/c2ccco2)cc1 , output reported cell number change. -27.7%

Answer with the recorded cell number change of COc1ccc(C2N=C(c3ccccc3)NC(c3ccccc3)=N2)cc1 only. 1.5%

In one line, give reported cell number change of the entry Cc1cc(C(=O)Nc2ccncc2)ccc1[N+](=O)[O-] . -15%

Note cell number change for the compound shown: Cc1cc(C(=O)Nc2cccc(NC(=O)c3ccco3)c2)ccc1[N+](=O)[O-] -29.7%

Indicate the recorded cell number change value for this compound: COc1cccc(CNC(=O)C(=O)NCCC2CCCCN2S(=O)(=O)c2ccccc2)c1 (stereo not given) -8.33%
